Please provide measured vapor or sublimation pressure for the entries that follow.
settings: 308.15 K; Liquid; Ebulliometric method (Recirculating still)
Answers are plain numbers, in kPa.

See these solved cases before continuing.
   structure_smiles  measurement_units  reading
0     ClC(Cl)(Cl)Br                kPa    8.428
1             BrCBr                kPa    9.932
2             ClCBr                kPa    31.05

Now consider the entry below.
Can you share its vapor or sublimation pressure? I mean this compound: CCCCCCC
9.916

* * *

settings: 298.15 K; 101.33 kPa; Liquid; Vibrating tube method
± gives the expanded uncertainty stated by the source.
measure: mass density
# answer = value followed by unit

See these solved cases before continuing.
>>> print(df.to_string())
   structure_smiles              reading
0           CCCCCCC   679.6 ± 0.18 kg/m3
1     ClC(Cl)(Cl)Br  2002.14 ± 1.2 kg/m3
2             BrCBr  2478.61 ± 1.8 kg/m3

Now consider the entry below.
Can you share its mass density? I mean this compound: ClCBr
1921.71 ± 1.1 kg/m3
